# targetSystem: Human plasma kallikrein (Homo sapiens, UniProt P03952)
# Construct: yields a heavy chain (371 amino acids) and a light chain (248 amino acids)
# Sequence (P03952 391-638 limits assumed): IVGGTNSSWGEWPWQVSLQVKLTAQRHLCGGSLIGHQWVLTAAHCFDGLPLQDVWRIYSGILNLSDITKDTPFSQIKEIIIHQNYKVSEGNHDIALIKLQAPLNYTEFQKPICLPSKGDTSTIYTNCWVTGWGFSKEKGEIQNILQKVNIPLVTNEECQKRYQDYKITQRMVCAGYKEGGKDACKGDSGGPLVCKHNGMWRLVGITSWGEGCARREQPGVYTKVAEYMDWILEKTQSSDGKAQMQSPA
# Sequence (P03952 20-390 partner limits assumed): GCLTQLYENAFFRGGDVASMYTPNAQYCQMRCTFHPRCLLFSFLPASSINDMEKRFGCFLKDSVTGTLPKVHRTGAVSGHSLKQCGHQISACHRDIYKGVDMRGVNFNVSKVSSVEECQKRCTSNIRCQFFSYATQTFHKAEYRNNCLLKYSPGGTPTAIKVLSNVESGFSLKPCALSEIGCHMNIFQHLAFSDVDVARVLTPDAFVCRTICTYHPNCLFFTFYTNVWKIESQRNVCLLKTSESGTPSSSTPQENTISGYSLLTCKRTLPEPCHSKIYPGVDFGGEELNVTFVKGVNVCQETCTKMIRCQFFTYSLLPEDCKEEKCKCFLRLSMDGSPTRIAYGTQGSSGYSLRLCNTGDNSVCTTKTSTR
# experimentalProtocol: Kallikrein Assay (fluorogenic substrate hydrolysis, AFC release)
# experimentalConditions: purified Human plasma kallikrein 0.5 nM; substrate Acetyl-K—P—R-AFC 100 mM; 50 mM HEPES pH 7.4
# label = y if IC50 < 1 nM else n

molecule="Cc1cc(C(C)n2cc(C(=O)N[C@H]3C[C@@H](c4cc(Cl)ccc4C#N)C3)cn2)nnc1N1C[C@H]2C[C@H]2C1=O (single isomer, unassigned) [Example 30]" classname=n
molecule="Cc1c(C(C)n2cc(C(=O)N[C@H]3C[C@@H](c4cc(Cl)ccc4C#N)C3)nn2)cnc(N2C[C@H]3C[C@H]3C2=O)c1F (single isomer, unassigned) [Example 96]" classname=y
molecule="Cc1ccc(C#N)c([C@H]2C[C@@H](NC(=O)c3cn(C(C)c4cnc(N5C[C@H]6C[C@H]6C5=O)c(F)c4C)nn3)C2)n1 (single isomer, unassigned) [Example 136]" classname=n
molecule="Cc1ncc(C(C)n2cc(C(=O)N[C@H]3C[C@@H](c4cc(Cl)ccc4C#N)C3)nn2)cc1N1C[C@H]2C[C@H]2C1=O (single isomer, unassigned) [Example 139]" classname=n
molecule="[2H]C1(NC(=O)c2cn([C@@H](C)c3cnc(N4C[C@H]5C[C@H]5C4=O)cc3C)nn2)CC(C)(c2cc(Cl)ccc2C#N)C1 (single isomer, unassigned) [Example 146]" classname=y

Please determine if COc1cc(N2C[C@H]3C[C@H]3C2=O)ncc1[C@@H](C)n1cc(C(=O)N[C@H]2C[C@@H](c3cc(Cl)ccc3C#N)C2)cn1 (single isomer, unassigned) [Example 12] is below 1 nM in terms of IC50.
n

Please determine if Cc1nc(N2C[C@H]3C[C@H]3C2=O)ccc1C(C)n1cc(C(=O)N[C@H]2C[C@@H](c3cc(Cl)ccc3C#N)C2)nn1 (single isomer, unassigned) [Example 95] is below 1 nM in terms of IC50.
n

Please determine if Cc1cc(N2C[C@H]3C[C@H]3C2=O)ncc1C(C)n1cc(C(=O)N[C@H]2C[C@@](F)(c3cc(Cl)ccc3C#N)C2)nn1 (single isomer, unassigned) [Example 76] is below 1 nM in terms of IC50.
n

Please determine if COc1c(N2C[C@H]3C[C@H]3C2=O)ncc(C(C)n2cc(C(=O)N[C@H]3C[C@@H](c4cc(Cl)ccc4C#N)C3)nn2)c1C (single isomer, unassigned) [Example 112] is below 1 nM in terms of IC50.
n

Please determine if Cc1ccnc([C@H]2C[C@@H](NC(=O)c3cnn(C(C)c4cnc(N5C[C@H]6C[C@H]6C5=O)cc4C)c3)C2)c1 (single isomer, unassigned) [Example 32] is below 1 nM in terms of IC50.
n

Please determine if COc1cc(C(C)n2cc(C(=O)N[C@H]3C[C@@](C)(c4cc(Cl)ccc4C#N)C3)nn2)cnc1N1C[C@H]2C[C@H]2C1=O (single isomer, unassigned) [Example 105] is below 1 nM in terms of IC50.
y

Please determine if Cc1cc(N2C[C@H]3C[C@H]3C2=O)ncc1C(C)n1cc(C(=O)N[C@H]2C[C@@](C)(c3cc(Cl)ccc3C#N)C2)cn1 (single isomer, unassigned) [Example 9] is below 1 nM in terms of IC50.
y

Please determine if [2H]C1(NC(=O)c2cn([C@@H](C)c3cnc(N4C[C@H]5C[C@H]5C4=O)cc3C)nn2)CC(C)(c2cc(Cl)ccc2C#N)C1 (single isomer, unassigned) [Example 145] is below 1 nM in terms of IC50.
n

Please determine if Cc1cc(N2C[C@H]3C[C@H]3C2=O)cnc1C(C)n1cc(C(=O)N[C@H]2C[C@@H](c3cc(Cl)ccc3C#N)C2)cn1 (single isomer, unassigned) [Example 25] is below 1 nM in terms of IC50.
n

Please determine if CC(c1cnc(N2C[C@H]3C[C@H]3C2=O)c(N)c1)n1cc(C(=O)N[C@H]2C[C@@H](c3cc(Cl)ccc3C#N)C2)nn1 (single isomer, unassigned) [Example 107] is below 1 nM in terms of IC50.
n

Please determine if Cc1cc(N2C[C@H]3C[C@H]3C2=O)nnc1C(C)n1cc(C(=O)N[C@H]2C[C@@H](c3cc(Cl)ccc3C#N)C2)cn1 (single isomer, unassigned) [Example 54] is below 1 nM in terms of IC50.
n

Please determine if Cc1c(C(C)n2cc(C(=O)NC3CC(c4cccc(Cl)c4)C3O)nn2)nnc(N2C[C@H]3C[C@H]3C2=O)c1C (single isomer, unassigned) [Example 131] is below 1 nM in terms of IC50.
n
